# target.or.test.system: T1, full-length trimeric SARS-CoV-2 Spike protein (Spike-H6) (SARS-CoV-2, N-glycosylated (22 N-glycosylation sites))
# T1 construct: also called trimeric Spike; full-length Spike-H6
# test: ELISA screen
measurement.type: Mean normalized OD
Answer format: value, then unit.

Examples from the recorded data:
Clec14a CRD-mouse IgG2a-Fc fusion protein (Fc fusion) ASGACYSLHHATFKRRAAEEACSLRGGTLSTVHSGSEFQAVLLLLRAGPGPGGGSKDLLFWVALERSISQCTQEKEPLRGFSWLHPDSEDSEDSPLPWVEEPQRSCTVRKCAALQATRGVEPAGWKEMRCHLRTDGYLCKYGGGSGGGSGGGS: 0.012 OD
Klre1 CRD-mouse IgG2a-Fc fusion protein (Fc fusion) FRCSCYFFSKEELIWRDSQRACLSLNSSLIRMNKEEMNFFSLKSFFWVGVYYNETRRQWLWEDHSVLPSGLFSKLEANMKNFCASYKSKEAYMEENCANKLTYICKGGGSGGGSGGGS: -0.002 OD
Ly75_10 CRD-mouse IgG2a-Fc fusion protein (Fc fusion) YGGHCYASDQVLHSFSEAKQVCQELDHSATVVTIADENENKFVSRLMRENYNITMRVWLGLSQHSLDQSWSWLDGLDVTFVKWENKTKDGDGKCSILIASNETWRKVHCSRGYARAVCKIGGGSGGGSGGGS: -0.002 OD
Ly75_4 CRD-mouse IgG2a-Fc fusion protein (Fc fusion) SSLSCYKVFHIERIVRKRNWEEAERFCQALGAHLPSFSRREEIKDFVHLLKDQFSGQRWLWIGLNKRSPDLQGSWQWSDRTPVSAVMMEPEFQQDFDIRDCAAIKVLDVPWRRVWHLYEDKDYAYWKPFACDAKLEWVCQGGGSGGGSGGGS: -0.014 OD
Clec5a CRD-mouse IgG2a-Fc fusion protein (Fc fusion) HQGKCFFFSFSESPWKDSMDYCATQGSTLAIVNTPEKLKYLQDIAGIENYFIGLVRQPGEKKWRWINNSVFNGNVTNQDQNFDCVTIGLTKTYDAASCEVSYRWICEGGGSGGGSGGGS: 0 OD
Clec9a CRD-mouse IgG2a-Fc fusion protein (Fc fusion) NGKSCYYVFERWEMWNISKKSCLKEGASLFQIDSKEEMEFISSIGKLKGGNKYWVGVFQDGISGSWFWEDGSSPLSDLLPAERQRSAGQICGYLKDSTLISDKCDSWKYFICEGGGSGGGSGGGS: 0.029 OD

Now take the following binder into account.
Please report the recorded Mean normalized OD for Klrk1 CRD-mouse IgG2a-Fc fusion protein (Fc fusion) HRNNCYQFFNEEKTWNQSQASCLSQNSSLLKIYSKEEQDFLKLVKSYHWMGLVQIPANGSWQWEDGSSLSYNQLTLVEIPKGSCAVYGSSFKAYTEDCANLNTYICMGGGSGGGSGGGS .
0 OD
